target: Integrin protein αvβ3 (Homo sapiens, UniProt P05106+P06756); construct: purchased Chemicon International, Inc., Temecula, Calif., USA; assay: Receptor/ligand challenge assay of biotinylated vitronectin binding to plate-coated integrin αvβ3 (chemiluminescence); conditions: ratio of IC50 versus the Hood et al. antagonist in the same assay
Sequence (P06756 31-889 limits assumed): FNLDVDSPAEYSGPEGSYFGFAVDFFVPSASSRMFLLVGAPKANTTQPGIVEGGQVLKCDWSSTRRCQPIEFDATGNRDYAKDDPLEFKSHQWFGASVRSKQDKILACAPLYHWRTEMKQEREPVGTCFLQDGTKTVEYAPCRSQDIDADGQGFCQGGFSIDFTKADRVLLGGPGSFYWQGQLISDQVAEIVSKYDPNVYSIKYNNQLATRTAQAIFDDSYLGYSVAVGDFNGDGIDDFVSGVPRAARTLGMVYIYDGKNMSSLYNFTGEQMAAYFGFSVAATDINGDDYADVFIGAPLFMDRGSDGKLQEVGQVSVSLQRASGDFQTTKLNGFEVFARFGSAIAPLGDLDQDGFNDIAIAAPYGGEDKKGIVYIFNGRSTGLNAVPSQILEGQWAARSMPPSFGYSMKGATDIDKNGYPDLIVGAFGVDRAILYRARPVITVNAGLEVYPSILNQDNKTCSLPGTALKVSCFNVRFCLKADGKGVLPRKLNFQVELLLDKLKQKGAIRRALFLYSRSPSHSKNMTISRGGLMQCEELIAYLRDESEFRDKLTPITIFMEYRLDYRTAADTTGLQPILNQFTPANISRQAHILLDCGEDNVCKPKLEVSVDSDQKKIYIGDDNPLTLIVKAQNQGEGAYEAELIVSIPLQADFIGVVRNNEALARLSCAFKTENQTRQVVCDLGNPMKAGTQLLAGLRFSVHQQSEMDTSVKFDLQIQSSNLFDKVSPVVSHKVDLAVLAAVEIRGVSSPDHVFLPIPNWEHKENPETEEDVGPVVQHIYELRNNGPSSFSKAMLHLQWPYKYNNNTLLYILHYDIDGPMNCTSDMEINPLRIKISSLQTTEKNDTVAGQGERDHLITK
Sequence (P06756 891-1048 limits assumed): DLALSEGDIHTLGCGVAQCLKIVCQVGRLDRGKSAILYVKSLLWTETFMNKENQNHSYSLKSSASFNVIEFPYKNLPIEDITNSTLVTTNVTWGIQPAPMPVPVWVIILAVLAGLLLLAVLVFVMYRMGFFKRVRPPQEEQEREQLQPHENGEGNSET
Sequence (P05106 27-788): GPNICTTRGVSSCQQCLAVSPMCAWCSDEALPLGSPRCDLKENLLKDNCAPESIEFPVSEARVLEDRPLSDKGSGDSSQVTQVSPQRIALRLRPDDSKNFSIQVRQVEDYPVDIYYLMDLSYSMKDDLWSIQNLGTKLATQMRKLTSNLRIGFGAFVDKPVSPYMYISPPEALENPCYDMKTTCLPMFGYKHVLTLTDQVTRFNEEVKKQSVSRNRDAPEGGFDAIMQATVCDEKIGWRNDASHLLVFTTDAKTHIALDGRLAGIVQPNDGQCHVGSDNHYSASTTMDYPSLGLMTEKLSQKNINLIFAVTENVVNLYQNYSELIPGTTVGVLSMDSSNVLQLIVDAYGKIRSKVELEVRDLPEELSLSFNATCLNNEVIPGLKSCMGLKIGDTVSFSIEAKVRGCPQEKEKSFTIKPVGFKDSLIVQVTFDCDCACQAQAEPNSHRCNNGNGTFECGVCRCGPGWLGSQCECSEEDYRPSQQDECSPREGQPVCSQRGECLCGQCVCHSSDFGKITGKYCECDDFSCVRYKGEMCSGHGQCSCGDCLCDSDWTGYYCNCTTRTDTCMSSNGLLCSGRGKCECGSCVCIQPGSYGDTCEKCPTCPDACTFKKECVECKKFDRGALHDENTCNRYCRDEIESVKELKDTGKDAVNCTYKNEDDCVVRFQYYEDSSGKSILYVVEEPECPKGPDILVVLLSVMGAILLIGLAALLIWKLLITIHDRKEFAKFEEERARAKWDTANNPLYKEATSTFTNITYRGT
Where a name gives a salt, the structure may show the parent alone.
metric_name: IC50 Ratio Relative to Hood et al.

// known answers, use as guide
# compound, IC50 Ratio Relative to Hood et al.
measured = [
    ("CCCCOC(=O)NCCOC(=O)NCCS(=O)(=O)N[C@@H](CNC(=O)c1ccc(OCCNC2=NCCCN2)cc1)C(=O)O", "8.8 ± 3.5"),
    ("CCCCOC(=O)NCCCCOC(=O)NCCS(=O)(=O)N[C@@H](CNC(=O)c1ccc(OCCNC2=NCCCN2)cc1)C(=O)O", "10.8 ± 2.7"),
]

In plain terms, "CCCCOC(=O)NCCCOC(=O)NCCS(=O)(=O)N[C@@H](CNC(=O)c1ccc(OCCNC2=NCCCN2)cc1)C(=O)O" has a documented IC50 Ratio Relative to Hood et al. of 11.2 ± 2.4

In plain terms, CC(C)(CN)COC(=O)NCCS(=O)(=O)N[C@@H](CNC(=O)c1ccc(OCCNC2=NCCCN2)cc1)C(=O)O [Example 2, Hydrochloride] has a documented IC50 Ratio Relative to Hood et al. of 7.0 ± 0.7
